Source: PubChem BioAssay (NCI)

system: LOX IMVI melanoma; assay: NCI tumour cell line growth inhibition, 48 h
Measured TGI, listed per entry for reference.
measured_property: TGI

>>> df
                                   compound        measured_on  measured_property    reading
0  COC(=O)Cc1ccc2c(c1)Sc1ccc(CC(=O)OC)cc1N2C  LOX IMVI melanoma                TGI  > 57.1 µM
1     N#CCC1COc2ccccc2O1 (stereo not drawn)  LOX IMVI melanoma                TGI    > 10 µM
2    O=C1NCc2ccc3c(-c4cccc(Cl)c4)c[nH]c3c21  LOX IMVI melanoma                TGI    > 50 µM

* * *

Measured TGI, listed per entry for reference.
tested on: UO-31 renal; experiment: NCI tumour cell line growth inhibition, 48 h
Where a SMILES comes first, the peptide text is derived from it. [ ]: non-standard residue; d: D form. The star is where a group is joined. Phe(4-NO2) = N[CH](Cc1ccc([N+](=O)[O-])cc1)C(=O)O; Boc = CC(C)(C)OC(=O)*; OBn = c1ccc(CO*)cc1

compound	TGI
COC(=O)CCC(NC(=O)OC(C)(C)C)C(=O)NC(Cc1ccc([N+](=O)[O-])cc1)C(=O)NCC(=O)OCc1ccccc1 (stereo unspecified) (Boc-Glu(OMe)-[Phe(4-NO2)]-Gly-OBn; configuration not given here)	> 100 µM
CC(=O)OC(Cc1cc(C=C(C(F)(F)F)C(F)(F)F)cc(C)n1)(C(F)(F)F)C(F)(F)F	3.08 µM
CC(=O)n1c(COS(C)(=O)=O)nc2ccccc21	> 100 µM
O=C(O)c1c(-c2cccc3ccccc23)sc(-c2cccc3ccccc23)c1C(=O)O	> 100 µM
C=CC(=O)N1C/C(=C\c2ccc(N(C)C)cc2)C(=O)/C(=C/c2ccc(N(C)C)cc2)C1	> 100 µM
COC(=O)/C=C/c1ccccc1N=[S@](C)(=O)c1ccc(C)cc1	> 100 µM
Cc1ccc(C)n2c1nc1ccc3ccccc3c12	> 100 µM
Cc1cn(C2CC(n3cc(Cn4cc(F)c(=O)[nH]c4=O)nn3)C(CO)O2)c(=O)[nH]c1=O (stereo unspecified)	> 100 µM
O=C(O)CSc1n[nH]c(-c2ccc(O)cc2)n1	> 100 µM
CC(C)Oc1c(-c2c(OC(C)C)c(=O)c2=O)c(=O)c1=O	> 100 µM
CCCCOC(=O)CNC(=O)OCCCCC#CC#CCCCCOC(=O)NCC(=O)OCCCC	> 100 µM
CC(C)(CN)CN	> 100 µM
COC(=O)c1cc(C)ccc1CC(Cc1cccc(C)c1)C(=O)OC (stereo unspecified)	> 100 µM
CC(=O)Oc1ccc(/C=C/C(=O)O[C@@H](C)[C@H](C)OC(=O)/C=C/c2ccc(OC(C)=O)c(OC(C)=O)c2)cc1OC(C)=O	> 100 µM
N#Cc1c(-c2nc3ccccc3s2)c(=O)oc2cc(O)ccc12	74.9 µM
CC(C)(C)OC(=O)n1cc(C2CNC(=O)C23CCC(=O)N3Cc2ccccc2)c2ccccc21 (stereo unspecified)	49 µM

* * *

Measured TGI, listed per entry for reference.
test system: UACC-257 melanoma; experiment: NCI tumour cell line growth inhibition, 48 h

compound	measured_on	TGI
CCC(CCCN)Nc1cc(OC)cc2cccnc12 (stereo not given)	UACC-257 melanoma	62.8 µM
COc1ccc2c(c1)[nH]c(=O)c1c3cc(C)c(C)cc3cn21	UACC-257 melanoma	26.4 µM
Cc1nc2c(nc1C)C(=O)c1cc(O)ccc1C2=O	UACC-257 melanoma	> 78 µM
Nc1ccn(CCOC(=O)c2ccccc2)c(=O)n1	UACC-257 melanoma	> 100 µM
CC(C)CCCC(C)[C@H]1CCC2[C@@H]3CCC4Cc5nc6c(nc5C[C@]4(C)C3CC[C@@]21C)CC1CC[C@@H]2C(C[C@@H](O)[C@@]3(C)C2C[C@@H]2OC4(CCC(C)CO4)C(C)[C@@H]23)[C@@]1(C)C6 (stereo not given in full)	UACC-257 melanoma	> 100 µM
Cc1cc2c(c(C#N)c1C)NC(=O)CCC2=O	UACC-257 melanoma	> 100 µM
COC(=O)/C=C\Sc1ccn(/C=C\C(=O)OC)c(=S)n1	UACC-257 melanoma	> 100 µM
O=c1[nH]nc(Cc2ccccc2)n1/N=C/c1c[nH]c2ccccc12	UACC-257 melanoma	> 100 µM
O=C(c1ccccc1)C(C(=O)c1ccccc1)C1(O)C(=O)c2ccccc2C1=O	UACC-257 melanoma	> 100 µM
COc1cccc2cc(C)c(C(=O)c3ccccc3)nc12	UACC-257 melanoma	> 100 µM
COc1cc([C@H]2c3cc4c(cc3O[C@@]3(O)COC(=O)[C@@H]23)OCO4)cc(OC)c1OC	UACC-257 melanoma	> 100 µM
CC(C)(CN)CN	UACC-257 melanoma	> 100 µM
CCCC/C=C1\CCC(CN2CCCCC2)C1=O (stereo not given)	UACC-257 melanoma	42 µM
S=C1c2ccccc2NC(=NC2CCCC2)C2CSCN12 (stereo not given)	UACC-257 melanoma	> 100 µM
CC(=O)c1ccc(N=Nc2ccc3nonc3c2N)cc1	UACC-257 melanoma	> 100 µM
O=C(c1ccccc1)C(c1ccccc1)C1(O)C(=O)Nc2c(Cl)cc(Cl)cc21 (stereo not given)	UACC-257 melanoma	35 µM
Cc1cn(C2CC(n3cc(Cn4cc(F)c(=O)[nH]c4=O)nn3)C(CO)O2)c(=O)[nH]c1=O (stereo not given)	UACC-257 melanoma	> 100 µM
COc1cc(/C(C#N)=C/c2ccc3c(c2OC)OCO3)cc2c1OCO2	UACC-257 melanoma	> 100 µM
O=C(CCCCCCSc1nc(-c2ccccc2)cc(-c2ccc(Cl)cc2)n1)NO	UACC-257 melanoma	11.4 µM
CC(C)/C(Cl)=N/OC(=O)Nc1ccc(F)c(Cl)c1	UACC-257 melanoma	26.5 µM
COc1cc2c(cc1OC)C(=O)/C(=C/c1cccc(OCC(=O)c3ccccc3)c1)C2	UACC-257 melanoma	> 100 µM
COc1ccc2c(c1)OC(c1cccnc1)C(c1ccccc1)C2=O (stereo not given)	UACC-257 melanoma	> 100 µM
Cn1c(=O)c2c(nc(NCCCCl)n2CC(=O)O)n(C)c1=O	UACC-257 melanoma	> 100 µM
COc1cc(C2C=C(c3cccc(NC(C)=O)c3)Nc3ncnn32)cc(OC)c1OC (stereo not given)	UACC-257 melanoma	> 100 µM
COC(=O)c1cc(C)ccc1CC(Cc1cccc(C)c1)C(=O)OC (stereo not given)	UACC-257 melanoma	> 100 µM
